# System: bone loss associated with OVX
# Protocol Summary: Whole femoral density in ovariectomized rats, ED50 for preventing bone loss
# Format: in vivo, Sprague-Dawley female rats
# Conditions: Rattus norvegicus, 1008 h, dosing 3 times a week for about 6 weeks, dose preventing about 50% of the bone loss, by interpolation, read-out: ED50 (nmol/kg) for preservation of Femoral Mass
# ED50 values compiled below
API: value field is a number in nmol/kg; no unit string.

These solved cases illustrate the format of a correct answer.
COc1ccc(NC(=O)CCC(=O)OC2CCC3C4CCc5cc(O)ccc5C4CCC23C)c(O)c1C(N)=O (stereo not shown) = 19
CC12CCC3c4ccc(O)cc4CCC3C1CCC2OC(=O)CCC(=O)Nc1ccc(O)c(C(N)=O)c1O (stereo not shown) = 8
C[C@]12CC[C@@H]3c4ccc(O)cc4CC[C@H]3[C@@H]1CC[C@@H]2O [17-β-estradiol, reference compound] = 10

Now, please, on to the next compound.
Reported ED50 for COc1ccc(NC(=O)CCCCC(=O)OC2CCC3C4CCc5cc(O)ccc5C4CCC23C)c(O)c1C(N)=O (stereo not shown) : what is it?
9

====

# Protocol Summary: Binding to microcrystalline hydroxyapatite from dilute aqueous solution
# Conditions: 10^-5 M in 99:1 H2O:DMSO; 0.5% (w/v) slurried HA in Tris; mixed about 4 minutes; UV of supernatant
# Protocol: The ability of the compounds of the present invention to act as bone targeted pharmaceuticals is estimated initially by determination of the ability of the compounds to be bound to microcrystalline hydroxyapatite [Ca10(PO4)6.OH2] […] Absorption maxima (λmax) and extinction coefficients (ε) are determined using the Beer-Lambert law. […] Supernatants are taken for UV absorption spectrometry at previously determined λmax. Concentrations of test compound are determined and the extent of binding is calculated. […]
% Adsorbed strictly under 50% means label 1; at 50% or over means label 0.

Check out these entries, answers already filled in.
COc1ccc(NC(=O)CCC(=O)OC2CCC3C4CCc5cc(O)ccc5C4CCC23C)c(O)c1C(N)=O (centres unmarked) = label 0
CC12CCC3c4ccc(O)cc4CCC3C1CCC2OC(=O)CCC(=O)Nc1ccc(O)c(C(N)=O)c1O (centres unmarked) = label 0
C[C@]12CC[C@@H]3c4ccc(O)cc4CC[C@H]3[C@@H]1CC[C@@H]2O [17-β-estradiol, reference compound] = label 1
COc1ccc(NC(=O)CCCCC(=O)OC2CCC3C4CCc5cc(O)ccc5C4CCC23C)c(O)c1C(N)=O (centres unmarked) = label 0

Read the next record carefully.
# strict comparison: is reported % Adsorbed < 50%? input = NC(=O)c1c(O)ccc(N)c1O [3-amino-2,6-dihydroxybenzamide, reference compound]
label 1

====

# Protocol Summary: Binding to microcrystalline hydroxyapatite from dilute aqueous solution
# Conditions: Tetracycline positive control = 100
Classify as follows. Reported Binding Index greater than or equal to 50: Yes. Reported Binding Index below: No.

Check out these entries, answers already filled in.
COc1ccc(NC(=O)CCCCC(=O)OC2CCC3C4CCc5cc(O)ccc5C4CCC23C)c(O)c1C(N)=O (centres unmarked) = Yes
COc1ccc(NC(=O)CCC(=O)OC2CCC3C4CCc5cc(O)ccc5C4CCC23C)c(O)c1C(N)=O (centres unmarked) = Yes
CC12CCC3c4ccc(O)cc4CCC3C1CCC2OC(=O)CCC(=O)Nc1ccc(O)c(C(N)=O)c1O (centres unmarked) = Yes

Read the next record carefully.
Does C[C@]12CC[C@@H]3c4ccc(O)cc4CC[C@H]3[C@@H]1CC[C@@H]2O [17-β-estradiol, reference compound] have a reported Binding Index of at least 50?
No
